Target: mouse KOR (Mus musculus)
Sequence (P33534 whole entry): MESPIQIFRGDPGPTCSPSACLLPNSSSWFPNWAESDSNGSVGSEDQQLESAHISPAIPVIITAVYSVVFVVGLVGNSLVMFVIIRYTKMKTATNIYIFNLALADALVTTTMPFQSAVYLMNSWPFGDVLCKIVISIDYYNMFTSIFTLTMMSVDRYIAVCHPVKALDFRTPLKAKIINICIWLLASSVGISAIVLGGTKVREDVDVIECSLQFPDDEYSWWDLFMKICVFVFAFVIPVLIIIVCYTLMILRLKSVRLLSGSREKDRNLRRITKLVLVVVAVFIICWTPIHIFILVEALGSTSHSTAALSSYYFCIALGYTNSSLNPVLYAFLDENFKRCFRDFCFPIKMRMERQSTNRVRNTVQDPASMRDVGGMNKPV
Experiment: cell-based
Type: cell-based
Set-up: expressed in transfected cells
Conditions: read-out: potency/efficacy cAMP Emax ± SD
Numbered stars: 1 amine (or outer) side, 2 acyl side, 3 side chain; on linkers, the order of the positions; unused ones are H or OH. Bridge positions count the residues as written; N and C are the ends. Square brackets hold non-standard residues; d marks the D form. Peptide text beside a SMILES is read from it. CH2COCH2 = O=C(C[*:1])C[*:2]; CH2 = C([*:1])[*:2]; Mpa = O=C(O)CCS
Reported Emax values for a set of molecules
Reported Property: Emax (%)

Molecule: CC(C)C[C@H](NC(=O)[C@H](CCCCN)NC(=O)[C@@H]1CCCN1C(=O)[C@H](CCCNC(=N)N)NC(=O)[C@@H]1CSCC(=O)CSCCC(=O)N[C@@H](Cc2ccc(O)cc2)C(=O)NCC(=O)NCC(=O)N[C@@H](Cc2ccccc2)C(=O)N[C@@H](CC(C)C)C(=O)N[C@@H](CCCNC(=N)N)C(=O)N[C@@H](CCCNC(=N)N)C(=O)N1)C(=O)N[C@@H](CCCCN)C(=O)O [CSD-ace(1,8)-OH] ([Mpa]YGGFLRRCRPKLK-OH; linker 1-9 via CH2COCH2)
Measured: 57
--
Molecule: CC[C@H](C)[C@H](NC(=O)[C@H](CCCNC(=N)N)NC(=O)[C@H](CCCNC(=N)N)NC(=O)[C@H](CC(C)C)NC(=O)[C@H](Cc1ccccc1)NC(=O)CNC(=O)CNC(=O)[C@@H](N)Cc1ccc(O)cc1)C(=O)N[C@@H](CCCNC(=N)N)C(=O)N1CCC[C@H]1C(=O)N[C@@H](CCCCN)C(=O)N[C@@H](CC(C)C)C(=O)N[C@@H](CCCCN)C(N)=O [dynA1–13-NH2, reference compound]
Measured: 100
--
Molecule: CC[C@H](C)[C@@H]1NC(=O)[C@H](CCCNC(=N)N)NC(=O)[C@H](CCCNC(=N)N)NC(=O)[C@H](CC(C)C)NC(=O)[C@H](Cc2ccccc2)NC(=O)CNC(=O)CNC(=O)[C@H](Cc2ccc(O)cc2)NC(=O)CCSCSC[C@@H](C(=O)N[C@@H](CCCCN)C(=O)N[C@@H](CC(C)C)C(=O)N[C@@H](CCCCN)C(N)=O)NC(=O)[C@H](CCCNC(=N)N)NC1=O [CSD-CH2(1,10)-NH2] ([Mpa]YGGFLRRIRCKLK-NH2; linker 1-11 via CH2)
Measured: 49
--
Molecule: CC(C)C[C@H](NC(=O)[C@H](CCCCN)NC(=O)[C@@H]1CCCN1C(=O)[C@H](CCCNC(=N)N)NC(=O)[C@@H]1CSCC(=O)CSCCC(=O)N[C@@H](Cc2ccc(O)cc2)C(=O)NCC(=O)NCC(=O)N[C@@H](Cc2ccccc2)C(=O)N[C@@H](CC(C)C)C(=O)N[C@@H](CCCNC(=N)N)C(=O)N[C@@H](CCCNC(=N)N)C(=O)N1)C(=O)N[C@@H](CCCCN)C(N)=O [CSD-ace(1,8)-NH2] ([Mpa]YGGFLRRCRPKLK-NH2; linker 1-9 via CH2COCH2)
Measured: 73
